Biological target: Ionotropic glutamate receptor NMDA 1/2D (Rattus norvegicus, UniProt P35439+Q62645)
Sequence (Q62645 whole entry, other chains not shown): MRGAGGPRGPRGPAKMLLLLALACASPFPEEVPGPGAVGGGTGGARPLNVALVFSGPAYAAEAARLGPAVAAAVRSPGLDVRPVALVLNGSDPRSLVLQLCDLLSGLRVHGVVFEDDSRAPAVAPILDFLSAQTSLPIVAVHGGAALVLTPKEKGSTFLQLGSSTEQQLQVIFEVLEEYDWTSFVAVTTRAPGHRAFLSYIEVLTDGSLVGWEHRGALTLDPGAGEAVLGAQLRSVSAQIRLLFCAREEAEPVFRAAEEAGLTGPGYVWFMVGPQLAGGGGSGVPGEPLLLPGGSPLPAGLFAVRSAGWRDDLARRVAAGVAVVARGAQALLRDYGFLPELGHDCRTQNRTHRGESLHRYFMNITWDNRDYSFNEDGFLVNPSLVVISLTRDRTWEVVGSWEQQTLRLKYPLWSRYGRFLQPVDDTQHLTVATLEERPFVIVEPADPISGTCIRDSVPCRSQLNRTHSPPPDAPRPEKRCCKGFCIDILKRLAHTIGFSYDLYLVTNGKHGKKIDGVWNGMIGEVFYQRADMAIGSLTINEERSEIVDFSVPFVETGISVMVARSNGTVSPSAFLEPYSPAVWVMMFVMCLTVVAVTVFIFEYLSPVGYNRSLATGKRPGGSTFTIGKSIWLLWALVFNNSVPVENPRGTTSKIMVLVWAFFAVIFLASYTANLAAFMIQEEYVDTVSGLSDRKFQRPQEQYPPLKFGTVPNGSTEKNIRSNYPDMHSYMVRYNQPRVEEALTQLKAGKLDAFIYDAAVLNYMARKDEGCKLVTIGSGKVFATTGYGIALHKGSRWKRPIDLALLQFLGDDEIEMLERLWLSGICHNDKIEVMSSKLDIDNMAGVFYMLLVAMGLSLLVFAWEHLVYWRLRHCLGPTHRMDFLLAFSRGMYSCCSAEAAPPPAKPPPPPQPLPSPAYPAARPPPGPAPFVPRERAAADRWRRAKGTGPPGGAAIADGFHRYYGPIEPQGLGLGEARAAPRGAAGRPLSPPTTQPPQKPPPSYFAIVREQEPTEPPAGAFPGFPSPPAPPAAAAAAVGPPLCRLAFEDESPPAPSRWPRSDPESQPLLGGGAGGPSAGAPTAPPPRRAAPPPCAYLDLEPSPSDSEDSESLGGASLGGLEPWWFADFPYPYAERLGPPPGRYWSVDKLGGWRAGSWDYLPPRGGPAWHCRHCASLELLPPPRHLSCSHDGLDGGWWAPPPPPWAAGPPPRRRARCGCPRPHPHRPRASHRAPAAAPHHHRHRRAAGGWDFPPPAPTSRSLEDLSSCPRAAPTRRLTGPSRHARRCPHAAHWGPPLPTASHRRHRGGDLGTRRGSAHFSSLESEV
Assay: Positive allosteric modulation of recombinant rat GluN1/GluN2D receptor expressed in xenopus laevis oocyte assessed as potentiation of glutamate and glycine-induced current response at holding potential -40mV by two electrode voltage clamp method
property.name: EC50

>  <molecule>
CCOc1ccc(OCC2c3ccc(OC(C)C)cc3CCN2C(=O)c2ccc(F)c(Cl)c2)cc1 (centres undefined)

>  <property.name>
EC50

>  <reported.value>
2200 nM

$$$$
>  <molecule>
COc1ccc(OCC2c3ccc(N(C)C)cc3CCN2C(=O)c2cccc(Cl)c2)cc1 (centres undefined)

>  <property.name>
EC50

>  <reported.value>
4400 nM

$$$$
>  <molecule>
CCOc1ccc(OCC2c3ccc(OCC(C)C)cc3CCN2C(=O)c2cccc(Cl)c2)cc1 (centres undefined)

>  <property.name>
EC50

>  <reported.value>
1500 nM

$$$$
>  <molecule>
COc1ccc(OCC2c3ccc(N4CCOCC4)cc3CCN2C(=O)c2cccc(Cl)c2)cc1 (centres undefined)

>  <property.name>
EC50

>  <reported.value>
22000 nM

$$$$
>  <molecule>
CC(C)Oc1ccc(OCC2c3ccc(OC(C)C)cc3CCN2C(=S)c2cccc(F)c2)cc1 (centres undefined)

>  <property.name>
EC50

>  <reported.value>
1200 nM

$$$$
>  <molecule>
CCOc1ccc(OCC2c3ccc(OC4CCCC4)cc3CCN2C(=O)c2cccc(F)c2)cc1 (centres undefined)

>  <property.name>
EC50

>  <reported.value>
4900 nM

$$$$
>  <molecule>
COc1ccc(OCC2c3ccc(OC(C)C)cc3CCN2C(=S)c2cccc(F)c2)cc1 (centres undefined)

>  <property.name>
EC50

>  <reported.value>
1100 nM

$$$$
>  <molecule>
COc1ccc(OCC2c3ccc(OCC(C)C)cc3CCN2C(=O)c2cccc(Cl)c2)cc1 (centres undefined)

>  <property.name>
EC50

>  <reported.value>
1400 nM

$$$$
>  <molecule>
CCOc1ccc(OCC2c3ccc(OC(C)C)cc3CCN2C(=S)c2cccc(Br)c2)cc1 (centres undefined)

>  <property.name>
EC50

>  <reported.value>
280 nM

$$$$
